- Test system: U251 CNS
- Test details: NCI tumour cell line growth inhibition, 48 h
Observed property: TGI

{"Molecule": "CCOC(=O)c1c(NC(=O)c2ccc(Cl)cc2)sc2c(CN(C)C)c(O)ccc12", "Value reported": "23.5 µM"}

Sure, the documented TGI for CC(Cn1c2c(c3cc(O)ccc31)CCc1ccc(O)cc1-2)N(C)C (stereo unspecified) is > 100 µM

Sure, the documented TGI for COc1ccc(C2Cc3cc(OC)c(OC)c(OC)c3C2)cc1 (stereo unspecified) is > 100 µM

Sure, the documented TGI for COc1cc(C2S/C(=C/c3ccccc3)C(=O)N2c2cccc(NC(C)=O)c2)cc(OC)c1OC (stereo unspecified) is 50.8 µM

Sure, the documented TGI for "COc1ccc(-c2nc(Nc3ccccc3)sc2Cc2sc(Nc3ccccc3)nc2-c2ccc(OC)cc2)cc1" is > 100 µM

Sure, the documented TGI for CCOC(=O)C1=C(OC(OCC)C(CC)[Se]c2ccccc2)CCC1 (stereo unspecified) is 25.3 µM

Sure, the documented TGI for "COc1cccc(-c2nc3sccn3c2-c2ccnc(NCCCNS(=O)(=O)c3ccccc3)c2)c1" is > 100 µM

Sure, the documented TGI for "COc1ccc2c(c1)C(=O)c1c-2c(OCCN(C)C)nc2cc(OC)c(OC)cc12" is 19.1 µM

Sure, the documented TGI for CCOP(=O)(O)C(Nc1ccc(N=Nc2ccccc2)cc1)c1cccc(C(Nc2ccc(N=Nc3ccccc3)cc2)P(=O)(O)OCC)c1 (stereo unspecified) is > 100 µM

Sure, the documented TGI for CC(Oc1ccc(Cl)cc1Cl)C(=O)NN1C(=O)CC(=O)N(c2ccccc2)C1=S (stereo unspecified) is > 100 µM

Sure, the documented TGI for "COc1ccccc1C(=O)N(Cc1ccccc1)c1ccc(Cl)c(C(=O)OC(C)C)c1" is > 100 µM

Sure, the documented TGI for "COc1cc(OC)c2c(=O)c3cccc(C)c3n(C)c2c1" is > 100 µM

Sure, the documented TGI for "O=C1Oc2ccccc2C(=O)/C1=C/N1C(=O)CNC1=S" is > 100 µM

* * *

- System: NCI-H460 lung
- Test details: NCI tumour cell line growth inhibition, 48 h
Reported TGI values for a set of molecules

Answered examples (2):
{"Molecule": "C=C1C(=O)O[C@H]2C1C[C@H](O)[C@@]1(C)OC1CC[C@@]1(C)O[C@H]21 (stereo partly specified)", "Assay system": "NCI-H460 lung", "Observed property": "TGI", "Value reported": "> 100 µM"}
{"Molecule": "COc1ccccc1NC(=O)C1=C(C)NC(C)=C(C(=O)Nc2ccccc2OC)C1c1ccco1", "Assay system": "NCI-H460 lung", "Observed property": "TGI", "Value reported": "> 43.9 µM"}

Sure, the documented TGI for "Cc1c(-c2ccccc2)[nH]c2cn[nH]c(=O)c12" is > 100 µM

Sure, the documented TGI for "CCCc1cc(OC(=O)c2c(O)cc(OC)cc2CCC)cc(O)c1C(=O)O" is 76.6 µM

Sure, the documented TGI for "O=C1NC2(CCNCC2)Oc2ccccc21" is > 100 µM

Sure, the documented TGI for "Cc1cc(S(N)(=O)=O)c(S/C(=N\NS(=O)(=O)c2ccccc2)c2ccc(Cl)cc2)cc1Cl" is > 100 µM

* * *

- Test system: EKVX NSCLC
- Test details: NCI tumour cell line growth inhibition, 48 h
Classification field: enter criterion met for TGI values not below 30 µM, criterion not met for values below it.

Q) Reported TGI at or above 30 µM? "CC(C)OP(=O)(OC(C)C)C(C)(C)O"
A) criterion met

Q) Reported TGI at or above 30 µM? "O=CNc1ccccc1OCCOc1ccccc1NC=O"
A) criterion met

Q) Reported TGI at or above 30 µM? "Cc1cc(NN=C(c2ccc(O)cc2)c2ccc(O)cc2)c([N+](=O)[O-])cc1[N+](=O)[O-]"
A) criterion not met

Q) Reported TGI at or above 30 µM? "COc1cc2c3c(n(CCCNCCCNCCCN)c(=O)c2cc1OC)-c1cc2c(cc1C3=O)OCO2"
A) criterion met

Q) Reported TGI at or above 30 µM? Cc1cc(Cl)ccc1NC(=O)C1C(=O)N(c2ccc(Cl)cc2C)C(=O)/C1=N\NC(N)=S (stereo not given)
A) criterion met

Q) Reported TGI at or above 30 µM? "Nc1ccccc1C#Cc1ccccc1C#Cc1cccs1"
A) criterion met

Q) Reported TGI at or above 30 µM? C1=CC2CCC1CN2CCC1CNc2ccccc21 (stereo not given)
A) criterion met

Q) Reported TGI at or above 30 µM? CC(C)[Si]1(C(C)C)OCC2OC(n3ccc(=O)[nH]c3=O)C([Se]c3ccccc3)C2O[Si](C(C)C)(C(C)C)O1 (stereo not given)
A) criterion not met

Q) Reported TGI at or above 30 µM? "CCOc1nc2c(N3CCCC3)nc(N3CCNCC3)nc2nc1NCc1ccccc1"
A) criterion not met

* * *

- Tested on: DU-145 prostate
- Test details: NCI tumour cell line growth inhibition, 48 h
Reported TGI values for a set of compounds

{"Compound": "CC(C)[C@H]1NC(=O)[C@H]2N=C(S[C@H]2C)[C@@H]2CCCN2C(=O)[C@H](Cc2ccccc2)NC(=O)[C@@H]2CSC(=N2)[C@@H](Cc2ccccc2)NC(=O)[C@@H]2CSC1=N2", "Assay system": "DU-145 prostate", "TGI": "> 50 µM"}
{"Compound": "COc1cc(NC2CCCCC2O)c2nc(-c3ccc(Cl)cc3)ccc2c1 (stereo unspecified)", "Assay system": "DU-145 prostate", "TGI": "58 µM"}
{"Compound": "Cc1c(/C=N/NC(=S)N2CCCCC2)c(=O)n(-c2ccccc2)n1C", "Assay system": "DU-145 prostate", "TGI": "> 100 µM"}
{"Compound": "CCCCCCCCCCCCOCC1(COCCCCCCCCCCCC)COC(c2ccc(N)cc2)OC1", "Assay system": "DU-145 prostate", "TGI": "> 100 µM"}
{"Compound": "O=C(O)CCCCC1CCSS1 (stereo unspecified)", "Assay system": "DU-145 prostate", "TGI": "> 100 µM"}
{"Compound": "COc1cc(OC)c2c(=O)c3cccc(C)c3n(C)c2c1", "Assay system": "DU-145 prostate", "TGI": "> 100 µM"}
{"Compound": "COc1ccc2c(c1OC)O/C(=C\\c1ncc([N+](=O)[O-])n1C)C2=O", "Assay system": "DU-145 prostate", "TGI": "6.27 µM"}
{"Compound": "O=C(Cn1c2ccc(Br)cc2c2nc3ccccc3nc21)Nc1ccccc1", "Assay system": "DU-145 prostate", "TGI": "> 100 µM"}

Sure, the documented TGI for "COc1cccc(-c2nc3sccn3c2-c2ccnc(NCCCNS(=O)(=O)c3ccccc3)c2)c1" is > 100 µM

Sure, the documented TGI for "CC(=O)c1ccc(Nc2c3ccccc3nc3occc23)cc1" is 5.39 µM

Sure, the documented TGI for "O=[N+]([O-])/C=C/c1ccc(Cl)cc1[N+](=O)[O-]" is 5.49 µM

* * *

- Tested on: RXF 393 renal
- Test details: NCI tumour cell line growth inhibition, 48 h
Reported TGI values for a set of compounds
Please reply with the bare figure in µM and do not write the unit itself.

Record CC(C)[Si]1(C(C)C)OCC2OC(n3ccc(=O)[nH]c3=O)C([Se]c3ccccc3)C2O[Si](C(C)C)(C(C)C)O1 (stereo unspecified) ; system RXF 393 renal; TGI = 9.65

* * *

- System: SW-620 colon
- Test details: NCI tumour cell line growth inhibition, 48 h; in the data active = GI50 below about 0.43 µM; inactive = the rest
Response enum: active, inactive

Example entries begin here.
{"Compound": "C[As](C)SC1OCC(O)C(O)C1O (stereo not drawn)", "Assay system": "SW-620 colon", "Classification": "active"}
{"Compound": "COc1cccc(-c2nc3sccn3c2-c2ccnc(NCCCNS(=O)(=O)c3ccccc3)c2)c1", "Assay system": "SW-620 colon", "Classification": "inactive"}

Q) Tell me the assay call for "COc1ccc2c(c1)C(=O)c1c-2c(OCCN(C)C)nc2cc(OC)c(OC)cc12" please.
A) inactive

* * *

- System: HOP-62 NSCLC
- Test details: NCI tumour cell line growth inhibition, 48 h
Reported TGI values for a set of molecules

Record Cc1cc(Cl)ccc1NC(=O)C1C(=O)N(c2ccc(Cl)cc2C)C(=O)/C1=N\NC(N)=S (stereo not given) ; system HOP-62 NSCLC; TGI = 48.5 µM

Record "COc1ccc(-c2csc(Nc3cccc(-c4csc(C)n4)c3)n2)cc1" ; system HOP-62 NSCLC; TGI = > 33.8 µM

Record CCOC(=O)C1=C(OC(OCC)C(CC)[Se]c2ccccc2)CCC1 (stereo not given) ; system HOP-62 NSCLC; TGI = > 100 µM

Record "Cc1c(/C=N/NC(=S)N2CCCCC2)c(=O)n(-c2ccccc2)n1C" ; system HOP-62 NSCLC; TGI = > 100 µM

Record "COc1cc(/C=C2\SC(N3CCCCC3)=NC2=O)ccc1OCCCCCCOc1ccc(/C=C2\SC(N3CCCCC3)=NC2=O)cc1OC" ; system HOP-62 NSCLC; TGI = 16.3 µM

Record O=C1C(=O)C2(CC1S(=O)(=O)c1ccccc1)c1ccccc1-c1ccccc12 (stereo not given) ; system HOP-62 NSCLC; TGI = 44 µM
